assay: Osmolality of aqueous solutions; format: physicochemical; conditions: 300mg I/ml
observable: Osmolality mosm/kg at 300mg I/ml (mosm/kg)
Reply numerically in mosm/kg, unit not repeated.

For record CN(CC(=O)N(C)c1c(I)c(C(=O)N(C)CC(O)CO)c(I)c(C(=O)N(C)CC(O)CO)c1I)C(=O)c1c(I)c(NC(=O)CO)c(I)c(C(=O)NCC(O)CO)c1I (centres unmarked) the listed Osmolality mosm/kg at 300mg I/ml is 165

For record CN(CC(=O)N(C)c1c(I)c(C(=O)NCC(O)CO)c(I)c(C(=O)NCC(O)CO)c1I)C(=O)c1c(I)c(NC(=O)CO)c(I)c(C(=O)NCC(O)CO)c1I (centres unmarked) the listed Osmolality mosm/kg at 300mg I/ml is 152

For record COCC(=O)Nc1c(I)c(C(=O)NCC(O)CO)c(I)c(C(=O)N(C)CC(=O)N(C)c2c(I)c(C(=O)NCC(O)CO)c(I)c(C(=O)NCC(O)CO)c2I)c1I (centres unmarked) the listed Osmolality mosm/kg at 300mg I/ml is 130

For record CC(=O)Nc1c(I)c(C(=O)NCC(O)CO)c(I)c(C(=O)N(C)CC(=O)N(C)c2c(I)c(C(=O)NC(CO)C(O)CO)c(I)c(C(=O)NC(CO)C(O)CO)c2I)c1I (centres unmarked) the listed Osmolality mosm/kg at 300mg I/ml is 155

For record CC(=O)Nc1c(I)c(C(=O)NCC(O)CO)c(I)c(C(=O)N(CC(=O)Nc2c(I)c(C(=O)NCC(O)CO)c(I)c(C(=O)NCC(O)CO)c2I)CC(O)CO)c1I (centres unmarked) the listed Osmolality mosm/kg at 300mg I/ml is 125
